Tested on: Escherichia coli
test summary: Antibacterial activity against extended-spectrum beta-lactamase deficient Escherichia coli 12-14 after 18 hrs by CLSI broth microdilution method
Format: functional
cond: 12-14, 18 h
reported metric: MIC (µg/mL)
State the answer as a number, implicitly in µg/mL.

Ask | Looking for the measured MIC of `CN(C)CCCNC(=N)c1ccc2cc(-c3ccc(-c4cc5ccc(C(=N)NCCCN(C)C)cc5[nH]4)cc3)[nH]c2c1` , can you help?
Reply | 8

Ask | Looking for the measured MIC of `CNC(=N)c1ccc2cc(-c3ccc(-c4cc5ccc(C(=N)NC)cc5[nH]4)cc3)[nH]c2c1` , can you help?
Reply | 8

Then this compound:
Ask | Looking for the measured MIC of `N=C(c1ccc2cc(-c3ccc(-c4cc5ccc(C(=N)N6CC=CCC6)cc5[nH]4)cc3)[nH]c2c1)N1CC=CCC1` , can you help?
Reply | 8

---

Test system: Klebsiella pneumoniae
test summary: Antibacterial activity against extended-spectrum beta-lactamase deficient Klebsiella pneumoniae 12-4 after 18 hrs by CLSI broth microdilution method
Format: functional
cond: 12-4, 18 h
reported metric: MIC

Guide cases for MIC, answers given:
Ask | Looking for the measured MIC of `C[C@H]1COc2c(N3CCN(C)CC3)c(F)cc3c(=O)c(C(=O)O)cn1c23.C[C@H]1COc2c(N3CCN(C)CC3)c(F)cc3c(=O)c(C(=O)O)cn1c23.O` , can you help?
Reply | ≤ 0.03 µg/mL

Ask | Looking for the measured MIC of CCC(C)NC(=N)c1ccc2cc(-c3cncc(-c4cc5ccc(C(=N)NC(C)CC)cc5[nH]4)c3)[nH]c2c1 (stereo unspecified) , can you help?
Reply | > 64 µg/mL

Ask | Looking for the measured MIC of `CCNC(=N)c1ccc2cc(-c3ccc(-c4cc5ccc(C(=N)NCC)cc5[nH]4)cc3)[nH]c2c1` , can you help?
Reply | 16 µg/mL

Further cases:
Ask | Looking for the measured MIC of `CN1CCC2(CC1)CCN(C(=N)c1ccc3cc(-c4ccc(-c5cc6ccc(C(=N)N7CCC8(CCN(C)CC8)C7)cc6[nH]5)cc4)[nH]c3c1)C2` , can you help?
Reply | 16 µg/mL

Ask | Looking for the measured MIC of `c1cc2cc(-c3ccc(-c4cc5ccc(C6=NCCCN6)cc5[nH]4)cc3)[nH]c2cc1C1=NCCCN1` , can you help?
Reply | 8 µg/mL

Ask | Looking for the measured MIC of `CC(C)NC(=N)c1ccc2cc(-c3ccc(-c4cc5ccc(C(=N)NC(C)C)cc5[nH]4)cc3)[nH]c2c1` , can you help?
Reply | 2 µg/mL

Ask | Looking for the measured MIC of `CNC(=N)c1ccc2cc(-c3ccc(-c4cc5ccc(C(=N)NC)cc5[nH]4)cc3)[nH]c2c1` , can you help?
Reply | 32 µg/mL

Ask | Looking for the measured MIC of CCC(C)NC(=N)c1ccc2cc(-c3ccc(-c4cc5ccc(C(=N)NC(C)CC)cc5[nH]4)cc3)[nH]c2c1 (stereo unspecified) , can you help?
Reply | 4 µg/mL

---

Each item that follows carries a reported MIC.
System: Pseudomonas aeruginosa
test summary: Antibacterial activity against Pseudomonas aeruginosa ATCC 27853 after 18 hrs by CLSI broth microdilution method
Type: functional
cond: ATCC 27853, 18 h
State the answer as a number, implicitly in µg/mL.

Ask | Which MIC is reported with Pseudomonas aeruginosa for this entry: `CN(C)C(=N)c1ccc2cc(-c3ccc(Oc4ccc(-c5cc6ccc(C(=N)N(C)C)cc6[nH]5)cc4)cc3)[nH]c2c1` ?
Reply | 128

Ask | Which MIC is reported with Pseudomonas aeruginosa for this entry: `CN(C)C(=N)c1ccc2cc(-c3cnc(-c4cc5ccc(C(=N)N(C)C)cc5[nH]4)cn3)[nH]c2c1` ?
Reply | 128

Ask | Which MIC is reported with Pseudomonas aeruginosa for this entry: `CN(C)C(=N)c1ccc2cc(-c3cnc(-c4cc5ccc(C(=N)N(C)C)cc5[nH]4)s3)[nH]c2c1` ?
Reply | 16

Ask | Which MIC is reported with Pseudomonas aeruginosa for this entry: `CN(C)CCNC(=N)c1ccc2cc(-c3ccc(-c4cc5ccc(C(=N)NCCN(C)C)cc5[nH]4)cc3)[nH]c2c1` ?
Reply | 16

---

System: Staphylococcus epidermidis
test summary: Antibacterial activity against methicillin-sensitive Staphylococcus epidermidis 12-6 after 18 hrs by CLSI broth microdilution method
Assay type: functional
cond: 12-6, 18 h
reported metric: MIC (µg/mL)
State the answer as a number, implicitly in µg/mL.

Ask | Looking for the measured MIC of `CN(C)C(=N)c1ccc2cc(-c3cnc(-c4cc5ccc(C(=N)N(C)C)cc5[nH]4)s3)[nH]c2c1` , can you help?
Reply | 0.125

Ask | Looking for the measured MIC of `CN(C)C(=N)c1ccc2cc(-c3ccc4cc(-c5cc6ccc(C(=N)N(C)C)cc6[nH]5)ccc4c3)[nH]c2c1` , can you help?
Reply | 32

Ask | Looking for the measured MIC of `CCNC(=N)c1ccc2cc(-c3ccc(-c4cc5ccc(C(=N)NCC)cc5[nH]4)cc3)[nH]c2c1` , can you help?
Reply | 1

Ask | Looking for the measured MIC of `COCCNC(=N)c1ccc2cc(-c3cncc(-c4cc5ccc(C(=N)NCCOC)cc5[nH]4)c3)[nH]c2c1` , can you help?
Reply | 64

Ask | Looking for the measured MIC of `C[C@H]1COc2c(N3CCN(C)CC3)c(F)cc3c(=O)c(C(=O)O)cn1c23.C[C@H]1COc2c(N3CCN(C)CC3)c(F)cc3c(=O)c(C(=O)O)cn1c23.O` , can you help?
Reply | 0.5

Further cases:
Ask | Looking for the measured MIC of `CN(C)C(=N)c1ccc2cc(-c3cccc(-c4cc5ccc(C(=N)N(C)C)cc5[nH]4)c3)[nH]c2c1` , can you help?
Reply | 32

Ask | Looking for the measured MIC of `CN(C)C(=N)c1ccc2cc(-c3ccc(Oc4ccc(-c5cc6ccc(C(=N)N(C)C)cc6[nH]5)cc4)cc3)[nH]c2c1` , can you help?
Reply | 0.25

Ask | Looking for the measured MIC of `CN(C)C(=N)c1ccc2cc(-c3ccc(-c4cc5ccc(C(=N)N(C)C)cc5[nH]4)nc3)[nH]c2c1` , can you help?
Reply | 2

---

System: Escherichia coli
test summary: Antibacterial activity against extended-spectrum beta-lactamase deficient Escherichia coli 12-14 after 18 hrs by CLSI broth microdilution method
Format: functional
cond: 12-14, 18 h
reported metric: MIC (µg/mL)
State the answer as a number, implicitly in µg/mL.

Ask | Looking for the measured MIC of `N=C(c1ccc2cc(-c3ccc(-c4cc5ccc(C(=N)N6CCCC6)cc5[nH]4)cc3)[nH]c2c1)N1CCCC1` , can you help?
Reply | 4

Ask | Looking for the measured MIC of `CN1CCN(C(=N)c2ccc3cc(-c4ccc(-c5cc6ccc(C(=N)N7CCN(C)CC7)cc6[nH]5)cc4)[nH]c3c2)CC1` , can you help?
Reply | 8

Ask | Looking for the measured MIC of `CN(C)C(=N)c1ccc2cc(-c3cnc(-c4cc5ccc(C(=N)N(C)C)cc5[nH]4)cn3)[nH]c2c1` , can you help?
Reply | 4

Further cases:
Ask | Looking for the measured MIC of CCC(C)NC(=N)c1ccc2cc(-c3ccc(-c4cc5ccc(C(=N)NC(C)CC)cc5[nH]4)cc3)[nH]c2c1 (centres undefined) , can you help?
Reply | 4

---

System: Escherichia coli
test summary: Antibacterial activity against extended-spectrum beta-lactamase deficient Escherichia coli 12-14 after 18 hrs by CLSI broth microdilution method
Assay type: functional
cond: 12-14, 18 h
reported metric: MIC

Guide cases for MIC, answers given:
Ask | Looking for the measured MIC of `COCCNC(=N)c1ccc2cc(-c3cncc(-c4cc5ccc(C(=N)NCCOC)cc5[nH]4)c3)[nH]c2c1` , can you help?
Reply | > 64 µg/mL

Ask | Looking for the measured MIC of CCC(C)NC(=N)c1ccc2cc(-c3cncc(-c4cc5ccc(C(=N)NC(C)CC)cc5[nH]4)c3)[nH]c2c1 (stereo not drawn) , can you help?
Reply | > 64 µg/mL

Then this compound:
Ask | Looking for the measured MIC of `CNC(=N)c1ccc2cc(-c3cncc(-c4cc5ccc(C(=N)NC)cc5[nH]4)c3)[nH]c2c1` , can you help?
Reply | > 64 µg/mL

---

Each item that follows carries a reported MIC.
System: Klebsiella pneumoniae
test summary: Antibacterial activity against extended-spectrum beta-lactamase deficient Klebsiella pneumoniae 12-4 after 18 hrs by CLSI broth microdilution method
Format: functional
cond: 12-4, 18 h
State the answer as a number, implicitly in µg/mL.

Ask | Looking for the measured MIC of `COCCNC(=N)c1ccc2cc(-c3ccc(-c4cc5ccc(C(=N)NCCOC)cc5[nH]4)cc3)[nH]c2c1` , can you help?
Reply | 8

Ask | Looking for the measured MIC of `CN1CCN(C(=N)c2ccc3cc(-c4ccc(-c5cc6ccc(C(=N)N7CCN(C)CC7)cc6[nH]5)cc4)[nH]c3c2)CC1` , can you help?
Reply | 64

Ask | Looking for the measured MIC of `CN(C)C(=N)c1ccc2cc(-c3cnc(-c4cc5ccc(C(=N)N(C)C)cc5[nH]4)s3)[nH]c2c1` , can you help?
Reply | 4

Ask | Looking for the measured MIC of `CN(C)CCNC(=N)c1ccc2cc(-c3ccc(-c4cc5ccc(C(=N)NCCN(C)C)cc5[nH]4)cc3)[nH]c2c1` , can you help?
Reply | 8

Ask | Looking for the measured MIC of `N=C(c1ccc2cc(-c3ccc(-c4cc5ccc(C(=N)N6CCC(N7CCCC7)CC6)cc5[nH]4)cc3)[nH]c2c1)N1CCC(N2CCCC2)CC1` , can you help?
Reply | 16

Then this molecule:
Ask | Looking for the measured MIC of `CN(C)C(=N)c1ccc2cc(-c3cncc(-c4cc5ccc(C(=N)N(C)C)cc5[nH]4)c3)[nH]c2c1` , can you help?
Reply | 8
